So I've got a bunch of compounds here, and I need their Ki values.
Target protein (sequence): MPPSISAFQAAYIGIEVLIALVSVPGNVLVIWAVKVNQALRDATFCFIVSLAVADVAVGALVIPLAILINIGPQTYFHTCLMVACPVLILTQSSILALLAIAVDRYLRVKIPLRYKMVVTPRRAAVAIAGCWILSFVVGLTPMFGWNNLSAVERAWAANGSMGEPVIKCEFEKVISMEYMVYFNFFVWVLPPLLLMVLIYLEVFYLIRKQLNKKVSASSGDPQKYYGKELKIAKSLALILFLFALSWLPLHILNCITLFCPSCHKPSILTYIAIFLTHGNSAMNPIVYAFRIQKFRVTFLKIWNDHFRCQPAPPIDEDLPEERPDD
One number for each entry, in nM.

>>> value("CCCCn1c(/N=C/c2ccc(Cl)cc2)c(C#N)sc1=S")
24600
>>> value("CCCn1c(/N=C/c2ccc(Cl)cc2)c(C#N)sc1=S")
2.32
>>> value("N#Cc1sc(=S)n(-c2ccccc2)c1/N=C/c1ccc(Br)cc1")
186
>>> value("CCCCn1c(/N=C/c2ccc(Br)cc2)c(C#N)sc1=S")
0.1

Please report Ki for every entry that follows.
1. N#Cc1sc(=S)n(CCc2ccccc2)c1N=Cc1ccc(F)cc1
2. CCCn1c(/N=C/c2ccc(Br)cc2)c(C#N)sc1=S

*A*
[889, 607]
